- system.tested: Ribonuclease pancreatic (Bos taurus)
- Sequence (P61823 whole entry): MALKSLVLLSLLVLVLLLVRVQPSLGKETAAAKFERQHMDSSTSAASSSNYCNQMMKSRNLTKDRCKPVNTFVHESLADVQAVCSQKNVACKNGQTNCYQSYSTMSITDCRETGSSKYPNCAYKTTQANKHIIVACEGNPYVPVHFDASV
- test.description: Inhibition of bovine pancreatic RNase A at pH 5.9 by spectrophotometric method
property.label: Ki
A complete answer gives the number and then names the unit.

Can you look up Ki on Ribonuclease pancreatic (Bos taurus) for Nc1ncnc2c1ncn2[C@@H]1O[C@H](CO)[C@@H](OP(=O)(O)OC[C@H]2O[C@@H](n3ccc(=O)[nH]c3=O)C[C@@H]2OP(=O)(O)OP(=O)(O)O)[C@H]1O ?
27 nM
